- Tested on: SK-OV-3
- Assay Summary: NCI-60 single-dose screen
- Type: cell-based
- Condition Context: Homo sapiens; SK-OV-3, 10^–5 M; read-out: GI (%)
# label = bin(measured inhibition at 10 µM), where bins are low value (below 10%), medium value (10% to below 20%), high value (20% or more)

stdin: Dear colleague, I would appreciate it if you could identify the bin for O=C1C(Nc2ccc(I)cc2)=CC(c2ccc(Br)cc2)N1c1ccc(I)cc1 (centres unmarked) and reply at your convenience.
stdout: low value

stdin: Dear colleague, I would appreciate it if you could identify the bin for O=C1C(Nc2ccc(I)cc2)=CC(c2ccc(O)cc2)N1c1ccc(I)cc1 (centres unmarked) and reply at your convenience.
stdout: high value

stdin: Dear colleague, I would appreciate it if you could identify the bin for COc1ccccc1C1C=C(Nc2ccc(I)cc2)C(=O)N1c1ccc(I)cc1 (centres unmarked) and reply at your convenience.
stdout: medium value

stdin: Dear colleague, I would appreciate it if you could identify the bin for O=C1C(Nc2ccc(I)cc2)=CC(c2ccc(Cl)cc2)N1c1ccc(I)cc1 (centres unmarked) and reply at your convenience.
stdout: medium value

stdin: Dear colleague, I would appreciate it if you could identify the bin for N#Cc1ccc(C2C=C(Nc3ccc(I)cc3)C(=O)N2c2ccc(I)cc2)cc1 (centres unmarked) and reply at your convenience.
stdout: high value

stdin: Dear colleague, I would appreciate it if you could identify the bin for O=C1C(Nc2ccc(I)cc2)=CC(c2ccc(O)c(O)c2)N1c1ccc(I)cc1 (centres unmarked) and reply at your convenience.
stdout: high value

stdin: Dear colleague, I would appreciate it if you could identify the bin for O=C1C(Nc2ccc(I)cc2)=CC(c2ccc(C(F)(F)F)cc2)N1c1ccc(I)cc1 (centres unmarked) and reply at your convenience.
stdout: high value

stdin: Dear colleague, I would appreciate it if you could identify the bin for COc1ccc(C2C=C(Nc3ccc(I)cc3)C(=O)N2c2ccc(I)cc2)cc1OC (centres unmarked) and reply at your convenience.
stdout: low value

stdin: Dear colleague, I would appreciate it if you could identify the bin for O=C1C(Nc2ccc(I)cc2)=CC(c2ccccc2)N1c1ccc(I)cc1 (centres unmarked) and reply at your convenience.
stdout: low value

stdin: Dear colleague, I would appreciate it if you could identify the bin for O=C1C(Nc2ccc(I)cc2)=CC(c2ccc(F)cc2)N1c1ccc(I)cc1 (centres unmarked) and reply at your convenience.
stdout: medium value

stdin: Dear colleague, I would appreciate it if you could identify the bin for O=C1C(Nc2ccc(I)cc2)=CC(c2ccco2)N1c1ccc(I)cc1 (centres unmarked) and reply at your convenience.
stdout: high value

stdin: Dear colleague, I would appreciate it if you could identify the bin for COc1cc(OC)c(C2C=C(Nc3ccc(I)cc3)C(=O)N2c2ccc(I)cc2)cc1OC (centres unmarked) and reply at your convenience.
stdout: low value

stdin: Dear colleague, I would appreciate it if you could identify the bin for O=C1C(Nc2ccc(I)cc2)=CC(c2ccc3c(c2)OCO3)N1c1ccc(I)cc1 (centres unmarked) and reply at your convenience.
stdout: medium value

====

- System: RPMI-8226
- Assay Summary: NCI-60 single-dose screen
- Type: cell-based
- Condition Context: Homo sapiens; RPMI-8226, 10^–5 M; read-out: GI (%)
Record form. Attribute: inhibition at 10 µM. Fill in for each entry.
Just the number plus its unit, please.

stdin: What does the data say about its inhibition at 10 µM? Entry: COc1ccc(C2C=C(Nc3ccc(I)cc3)C(=O)N2c2ccc(I)cc2)cc1OC (stereo not drawn)
stdout: 7%

stdin: What does the data say about its inhibition at 10 µM? Entry: COc1ccccc1C1C=C(Nc2ccc(I)cc2)C(=O)N1c1ccc(I)cc1 (stereo not drawn)
stdout: 32%

stdin: What does the data say about its inhibition at 10 µM? Entry: O=C1C(Nc2ccc(I)cc2)=CC(c2ccc(Cl)cc2)N1c1ccc(I)cc1 (stereo not drawn)
stdout: 30%

stdin: What does the data say about its inhibition at 10 µM? Entry: O=C1C(Nc2ccc(I)cc2)=CC(c2ccc3c(c2)OCO3)N1c1ccc(I)cc1 (stereo not drawn)
stdout: 20%

stdin: What does the data say about its inhibition at 10 µM? Entry: O=C1C(Nc2ccc(I)cc2)=CC(c2ccc(Br)cc2)N1c1ccc(I)cc1 (stereo not drawn)
stdout: 34%

stdin: What does the data say about its inhibition at 10 µM? Entry: COc1cc(OC)c(C2C=C(Nc3ccc(I)cc3)C(=O)N2c2ccc(I)cc2)cc1OC (stereo not drawn)
stdout: 14%

stdin: What does the data say about its inhibition at 10 µM? Entry: O=C1C(Nc2ccc(I)cc2)=CC(c2ccccc2)N1c1ccc(I)cc1 (stereo not drawn)
stdout: 100%

stdin: What does the data say about its inhibition at 10 µM? Entry: O=C1C(Nc2ccc(I)cc2)=CC(c2ccc(O)cc2)N1c1ccc(I)cc1 (stereo not drawn)
stdout: 100%

stdin: What does the data say about its inhibition at 10 µM? Entry: O=C1C(Nc2ccc(I)cc2)=CC(c2ccc(C(F)(F)F)cc2)N1c1ccc(I)cc1 (stereo not drawn)
stdout: 60%

====

Record form. Attribute: inhibition at 10 µM. Fill in for each entry.
- Tested on: NCI/ADR-RES
- Assay Summary: NCI-60 single-dose screen
- Type: cell-based
- Condition Context: Homo sapiens, 10^–5 M, read-out: GI (%)

stdin: What does the data say about its inhibition at 10 µM? Entry: COc1ccc(C2C=C(Nc3ccc(I)cc3)C(=O)N2c2ccc(I)cc2)cc1OC (centres unmarked)
stdout: 0%

stdin: What does the data say about its inhibition at 10 µM? Entry: O=C1C(Nc2ccc(I)cc2)=CC(c2ccc3c(c2)OCO3)N1c1ccc(I)cc1 (centres unmarked)
stdout: 0%

stdin: What does the data say about its inhibition at 10 µM? Entry: N#Cc1ccc(C2C=C(Nc3ccc(I)cc3)C(=O)N2c2ccc(I)cc2)cc1 (centres unmarked)
stdout: 37%

stdin: What does the data say about its inhibition at 10 µM? Entry: O=C1C(Nc2ccc(I)cc2)=CC(c2ccc(F)cc2)N1c1ccc(I)cc1 (centres unmarked)
stdout: 9%

stdin: What does the data say about its inhibition at 10 µM? Entry: O=C1C(Nc2ccc(I)cc2)=CC(c2ccco2)N1c1ccc(I)cc1 (centres unmarked)
stdout: 15%

stdin: What does the data say about its inhibition at 10 µM? Entry: O=C1C(Nc2ccc(I)cc2)=CC(c2cc(C(F)(F)F)cc(C(F)(F)F)c2)N1c1ccc(I)cc1 (centres unmarked)
stdout: 7%

stdin: What does the data say about its inhibition at 10 µM? Entry: COc1cc(OC)c(C2C=C(Nc3ccc(I)cc3)C(=O)N2c2ccc(I)cc2)cc1OC (centres unmarked)
stdout: 0%

stdin: What does the data say about its inhibition at 10 µM? Entry: O=C1C(Nc2ccc(I)cc2)=CC(c2ccc(O)c(O)c2)N1c1ccc(I)cc1 (centres unmarked)
stdout: 35%

stdin: What does the data say about its inhibition at 10 µM? Entry: COc1ccccc1C1C=C(Nc2ccc(I)cc2)C(=O)N1c1ccc(I)cc1 (centres unmarked)
stdout: 3%

stdin: What does the data say about its inhibition at 10 µM? Entry: O=C1C(Nc2ccc(I)cc2)=CC(c2ccccc2)N1c1ccc(I)cc1 (centres unmarked)
stdout: 0%

stdin: What does the data say about its inhibition at 10 µM? Entry: O=C1C(Nc2ccc(I)cc2)=CC(c2ccc(Cl)cc2)N1c1ccc(I)cc1 (centres unmarked)
stdout: 1%

stdin: What does the data say about its inhibition at 10 µM? Entry: O=C1C(Nc2ccc(I)cc2)=CC(c2ccc(C(F)(F)F)cc2)N1c1ccc(I)cc1 (centres unmarked)
stdout: 35%

stdin: What does the data say about its inhibition at 10 µM? Entry: O=C1C(Nc2ccc(I)cc2)=CC(c2ccc(O)cc2)N1c1ccc(I)cc1 (centres unmarked)
stdout: 44%

stdin: What does the data say about its inhibition at 10 µM? Entry: O=C1C(Nc2ccc(I)cc2)=CC(c2ccc(Br)cc2)N1c1ccc(I)cc1 (centres unmarked)
stdout: 0%

====

- Tested on: 786-0
- Assay Summary: NCI-60 single-dose screen
- Type: cell-based
- Condition Context: Homo sapiens; 786-0, 10^–5 M; read-out: GI (%)
- Text: In the next step, all synthesized compounds were electronically submitted and accepted for testing to the National Cancer Institute (NCI) platform, for the single dose (10^−5 M) screening against a panel of 60 human tumor cell lines, representing leukemia, melanoma, and cancers of the lung, colon, central nervous system, ovary, kidney, prostate, and breast. The results are summarized in Table 2, with the best values highlighted in red (Figures S1–S14).
Record form. Attribute: inhibition at 10 µM. Fill in for each entry.
Write the number in % without appending the unit.

stdin: What does the data say about its inhibition at 10 µM? Entry: N#Cc1ccc(C2C=C(Nc3ccc(I)cc3)C(=O)N2c2ccc(I)cc2)cc1 (stereo not drawn)
stdout: 55

stdin: What does the data say about its inhibition at 10 µM? Entry: O=C1C(Nc2ccc(I)cc2)=CC(c2ccc(Br)cc2)N1c1ccc(I)cc1 (stereo not drawn)
stdout: 6

stdin: What does the data say about its inhibition at 10 µM? Entry: COc1ccc(C2C=C(Nc3ccc(I)cc3)C(=O)N2c2ccc(I)cc2)cc1OC (stereo not drawn)
stdout: 0

====

Record form. Attribute: inhibition at 10 µM. Fill in for each entry.
- Tested on: SR
- Assay Summary: NCI-60 single-dose screen
- Assay type: cell-based
- Condition Context: Homo sapiens, 10^–5 M, read-out: GI (%)
Write the number in % without appending the unit.

stdin: What does the data say about its inhibition at 10 µM? Entry: O=C1C(Nc2ccc(I)cc2)=CC(c2ccc3c(c2)OCO3)N1c1ccc(I)cc1 (centres unmarked)
stdout: 27

stdin: What does the data say about its inhibition at 10 µM? Entry: COc1ccc(C2C=C(Nc3ccc(I)cc3)C(=O)N2c2ccc(I)cc2)cc1OC (centres unmarked)
stdout: 0

stdin: What does the data say about its inhibition at 10 µM? Entry: O=C1C(Nc2ccc(I)cc2)=CC(c2ccc(F)cc2)N1c1ccc(I)cc1 (centres unmarked)
stdout: 92

stdin: What does the data say about its inhibition at 10 µM? Entry: O=C1C(Nc2ccc(I)cc2)=CC(c2ccc(O)cc2)N1c1ccc(I)cc1 (centres unmarked)
stdout: 100

stdin: What does the data say about its inhibition at 10 µM? Entry: O=C1C(Nc2ccc(I)cc2)=CC(c2ccc(Br)cc2)N1c1ccc(I)cc1 (centres unmarked)
stdout: 0
